Attribution: patent US20130224224A1

Target: T1, human CX3CR1 (human, UniProt P49238 1-355)
T1 construct: overexpressed on CHO, BA/F3 or HEK293T cells; also called huCX3CR1; hCX3CR1
T1 sequence: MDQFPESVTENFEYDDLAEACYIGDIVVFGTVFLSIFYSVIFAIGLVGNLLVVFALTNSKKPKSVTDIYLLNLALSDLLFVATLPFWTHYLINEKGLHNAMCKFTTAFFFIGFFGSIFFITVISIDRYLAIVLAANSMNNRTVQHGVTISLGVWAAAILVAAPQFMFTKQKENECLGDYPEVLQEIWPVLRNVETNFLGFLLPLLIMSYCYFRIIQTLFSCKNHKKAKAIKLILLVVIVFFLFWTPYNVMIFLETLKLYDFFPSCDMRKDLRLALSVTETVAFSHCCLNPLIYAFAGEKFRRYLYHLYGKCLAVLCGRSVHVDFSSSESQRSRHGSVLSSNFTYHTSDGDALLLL
Test: A647-fractalkine competition FACS, HEK293-huCX3CR1
Procedure: Periplasmic extracts were screened in a human CX3CR1/human Fractalkine FACS competition assay to assess the blocking capacity of the expressed VHHs. Human CX3CR1 was presented on CHO cells overexpressing CX3CR1. […] After one hour incubation at 4 C, cells were washed three times before read out was performed on a FACS Array (Becton Dickinson). First a gate was set on the intact cells as determined from the scatter profile. […]
recordedEndpoint: IC50 (nM)
Respond numerically; units are nM and should not be typed.

Problem: In one line, give reported IC50 of the entry CX3CR1BIIPMP61G3 (VHH, also called 61G03; not shown: C-terminal c-myc and His6 tags) VHH: KVQLVESGGGSMQAGESLRLSCAASGSIFSSNAMAWYRQAPGKQRDLVAAINSVGITKYADSVKGRFTISRDNAKNTVYLQMMSLKPEDTAVYYCTSDPRRGWDTRYWGQGTQVTVSS .
Solution: 60

Problem: In one line, give reported IC50 of the entry CX3CR1BIIPMP54A7 (VHH, also called 54A07; not shown: C-terminal c-myc and His6 tags) VHH: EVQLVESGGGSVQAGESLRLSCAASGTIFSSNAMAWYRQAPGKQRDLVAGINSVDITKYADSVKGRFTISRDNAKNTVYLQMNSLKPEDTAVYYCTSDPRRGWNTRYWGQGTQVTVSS .
Solution: 23

Problem: In one line, give reported IC50 of the entry CX3CR1BIIPMP54D8 (VHH, also called 54D08; CX3CR1BII54D08; not shown: C-terminal c-myc and His6 tags) VHH: EVQLVESGGGSVQAGGSLRLSCAASGSIFSSNAMAWYRQAPGKQRDLVAGINSVGITKYADSVKGRFTISRDNAKNTVYLQMNSLKPEDTAVYYCTSDPRRGWDTRYWGQGTLVTVSS .
Solution: 84

Problem: In one line, give reported IC50 of the entry CX3CR1BIIPMP61G4 (VHH, also called 61G04; not shown: C-terminal c-myc and His6 tags) VHH: KVQLVESGGGSVQAGGSLRLSCAASGSIFSSNAMAWYRQAPGKQRDLVAAINSVGITKYADSVKGRFTISRDNAKNTVYLQMMSLKPEDTAVYYCTSDPRRGWDTRYWGQGTQVTVSS .
Solution: 42
